Entries and their pIC50 values follow.
Tested on: SK-BR-3
Experiment: Antiproliferative activity against human SKBR3 cells after 72 hrs
Assay type: functional, cell-based
Details: SK-BR-3, 72 h
// pIC50 is dimensionless: -log10 of concentration (M)

Worked cases, pIC50 given:
[[record]]
smi = "NCCCCNCc1c2ccccc2cc2ccccc12"
system_tested = "SK-BR-3"
measured_metric = "pIC50"
meas_value = 5.48

[[record]]
smi = "NCc1c2ccccc2cc2ccccc12"
system_tested = "SK-BR-3"
measured_metric = "pIC50"
meas_value = 4.59

[[record]]
smi = "N=C(N)NCc1ccc2c(c1)Cc1ccccc1-2"
system_tested = "SK-BR-3"
measured_metric = "pIC50"
meas_value = 4.80

[[record]]
smi = "N=C(N)NCCCCNCc1ccc2ccc3cccc4ccc1c2c34"
system_tested = "SK-BR-3"
measured_metric = "pIC50"
meas_value = 5.72

[[record]]
smi = "N=C(N)NCCCCNCc1c2ccccc2cc2ccccc12"
system_tested = "SK-BR-3"
measured_metric = "pIC50"
meas_value = 5.64


Entry `N=C(N)NCc1c2ccccc2cc2ccccc12` : reported pIC50 = ? 5.72
